Hello, the source for this data is ChEMBL document CHEMBL4627396, in case you need it.

TARGET_OR_TEST_SYSTEM: Cytochrome P450 1A2 (Homo sapiens)
Sequence (P05177 whole entry): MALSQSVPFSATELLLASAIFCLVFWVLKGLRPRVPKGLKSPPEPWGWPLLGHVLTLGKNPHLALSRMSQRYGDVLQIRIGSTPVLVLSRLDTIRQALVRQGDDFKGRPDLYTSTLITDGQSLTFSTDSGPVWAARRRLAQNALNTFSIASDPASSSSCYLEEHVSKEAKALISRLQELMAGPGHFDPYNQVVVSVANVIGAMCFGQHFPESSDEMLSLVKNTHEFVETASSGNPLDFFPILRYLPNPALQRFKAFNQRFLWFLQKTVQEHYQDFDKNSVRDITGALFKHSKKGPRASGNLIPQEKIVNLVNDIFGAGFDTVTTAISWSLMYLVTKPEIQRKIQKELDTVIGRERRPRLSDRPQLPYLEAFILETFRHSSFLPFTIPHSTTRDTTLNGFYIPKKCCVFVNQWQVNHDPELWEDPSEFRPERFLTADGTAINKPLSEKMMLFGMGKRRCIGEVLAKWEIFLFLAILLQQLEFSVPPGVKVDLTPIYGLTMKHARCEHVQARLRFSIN
pIC50: −log10 of the molar value.
TEST_READOUT: pIC50

Name the recorded pIC50 for CC(C)(C#N)c1cc(Nc2nc(N3CCC[C@H](N)C3)ncc2C(N)=O)cc(C(C)(C)C#N)c1 .
< 4.70
